target: Replicase polyprotein 1ab (Severe acute respiratory syndrome coronavirus); experiment: SARS-CoV PLpro inhibitor potency, dose response, counter-screen for SARS-CoV 3CLpro inhibitor project, biochemical, luminescence (AID 1944); settings: SARS-CoV PLpro enzymatic assay
The source made the active and inactive calls. The rule behind the calls is not given here.
Select the matching outcome among True = active, False = inactive

Example entries and their recorded answers appear below.
* Cc1sc(NC(=O)CCl)c(C(=O)c2ccccc2)c1C | False
* COc1ccc(C2CC(c3cccs3)=NN2C(=O)CCl)cc1OC (stereo not drawn) | False
* COc1ccc(C(=O)n2c(SC)nc3cc4c(cc32)OCCO4)cc1 | True
* O=C(Oc1cccnc1)c1ccc(Cl)cc1 | True
* O=C1C(=O)N(CC2COc3ccccc3O2)c2ccccc21 (stereo not drawn) | False

Ask: What call does the record list for C[C@@]12C(=O)N(c3cccc(Br)c3)C(=O)N1[C@H](c1ccc(Cl)cc1)[C@@H]1C(=O)N(C3CCCCC3)C(=O)[C@@H]12 ?
Reply: False

Ask: And the next one, CCC(C)(C)NC(=O)C(c1ccc(O)cc1)N(C(=O)Cn1nnc2ccccc21)c1ccc(NC(C)=O)cc1 (stereo not drawn) ?
Reply: False

Ask: And the next one, CC(C)c1ccc(N(C(=O)c2ccco2)C(C(=O)NC2CCCC2)c2cccnc2)cc1 (stereo not drawn) ?
Reply: False

Ask: And the next one, CCC(C)c1ccc(N(C(=O)c2ccco2)C(C(=O)NC2CCCC2)c2cccnc2)cc1 (stereo not drawn) ?
Reply: False

Ask: And the next one, O=C(CCl)N(CCc1ccccc1)CCc1ccccc1 ?
Reply: False

Ask: And the next one, CN(C)S(=O)(=O)c1cccc(NC(=O)CSc2cccc3cccnc23)c1 ?
Reply: False

Ask: And the next one, O=C1C(=O)N(C/C=C/c2ccccc2)c2ccccc21 ?
Reply: False

Ask: And the next one, COc1cccc(C(C(=O)NCC2CCCO2)N(C(=O)Cn2nnc3ccccc32)c2ccc(NC(C)=O)cc2)c1 (stereo not drawn) ?
Reply: False

Ask: And the next one, O=C1C(=O)N(CCCc2ccccc2)c2ccccc21 ?
Reply: False

###

biological target: Replicase polyprotein 1ab (Severe acute respiratory syndrome coronavirus) (UniProt P0C6X7); experiment: SARS-CoV PLpro inhibitor potency, dose response, counter-screen for SARS-CoV 3CLpro inhibitor project, biochemical, luminescence (AID 1944); details: SARS-CoV PLpro enzymatic assay
Activity calls are given as the source filed them. No rule for the calls is given here.
// values below are reported IC50

* CCCCOc1ccc(C(=O)Oc2cccnc2)cc1 | 1.61 µM
* COc1cccc(C(C(=O)NCc2ccco2)N(Cc2ccco2)C(=O)Cn2nnc3ccccc32)c1 (stereo not drawn) | > 59.6 µM (inactive)

Ask: For Replicase polyprotein 1ab (Severe acute respiratory syndrome coronavirus) (UniProt P0C6X7), provide IC50 of O=C(OCC(=O)N1c2ccccc2Sc2ccccc21)c1cccnc1 please.
Reply: > 59.6 µM (inactive)

###

target: Replicase polyprotein 1ab (Severe acute respiratory syndrome coronavirus); assay: SARS-CoV PLpro inhibitor potency, dose response, counter-screen for SARS-CoV 3CLpro inhibitor project, biochemical, luminescence (AID 1944); conditions: SARS-CoV PLpro enzymatic assay
Calls of active or inactive are those of the source. No rule for the calls is given here.
Select the matching outcome among active, inactive

Example entries and their recorded answers appear below.
- Cc1cc(=O)oc2cc(OC(=O)c3ccco3)ccc12: inactive
- NC(=O)CCn1c(C(=O)c2cccc([N+](=O)[O-])c2)c2ccccc2[n+]1[O-]: inactive
- O=C(Nc1ccc(OCC(F)(F)C(F)F)c(C(F)(F)F)c1)c1ccccc1O: active
- O=C(Nc1ccccc1)NN(C(=O)CCl)c1ccccc1: inactive
- COc1ccccc1OCCNC(=O)c1cc(=O)[nH]c2ccccc12: inactive

Ask: What call does the record list for Cc1ccc(C(=O)c2c3ccccc3[n+]([O-])n2CCC(N)=O)cc1 ?
Reply: active

Ask: And the next one, Cc1cccc2c1N(CCOc1ccccc1)C(=O)C2=O ?
Reply: inactive

Ask: And the next one, Cc1cc(C(=O)CCl)c(C)n1-c1cccc([N+](=O)[O-])c1 ?
Reply: inactive
